Reference source for all entries: paper PMC8955975

Quick record of log10 Ki values for hCA II (Homo sapiens).
# log10 transformed; quantity=Ki; unit=nM

COC(=O)c1cn(CCc2ccc(S(N)(=O)=O)cc2)cc2c(=O)[nH]nc1-2    2.82

What measured log10 Ki is associated with CC(=O)N1CC(Nc2cccc(S(N)(=O)=O)c2)=CC1=O on hCA II (Homo sapiens)?
1.79

# returns recorded log10 Ki (system: hCA II (Homo sapiens)) for COC(=O)c1cn(-c2cccc(S(N)(=O)=O)c2)cc2c(=O)[nH]nc1-2
2.39

Find the measured log10 Ki: item NS(=O)(=O)CCNC=C1C(=O)Oc2ccccc2C1=O , target or system hCA II (Homo sapiens).
3.76
